These entries and their values trace back to patent US20240376185A1.

Recorded % inhibition of binding, one value per entry.
# Tested Target: tetanus neurotoxin (TeNT), authentic tetanus holotoxin (Clostridium tetani, UniProt P04958 2-1315)
# Sequence (P04958 2-457 limits assumed, chain 1 of 2): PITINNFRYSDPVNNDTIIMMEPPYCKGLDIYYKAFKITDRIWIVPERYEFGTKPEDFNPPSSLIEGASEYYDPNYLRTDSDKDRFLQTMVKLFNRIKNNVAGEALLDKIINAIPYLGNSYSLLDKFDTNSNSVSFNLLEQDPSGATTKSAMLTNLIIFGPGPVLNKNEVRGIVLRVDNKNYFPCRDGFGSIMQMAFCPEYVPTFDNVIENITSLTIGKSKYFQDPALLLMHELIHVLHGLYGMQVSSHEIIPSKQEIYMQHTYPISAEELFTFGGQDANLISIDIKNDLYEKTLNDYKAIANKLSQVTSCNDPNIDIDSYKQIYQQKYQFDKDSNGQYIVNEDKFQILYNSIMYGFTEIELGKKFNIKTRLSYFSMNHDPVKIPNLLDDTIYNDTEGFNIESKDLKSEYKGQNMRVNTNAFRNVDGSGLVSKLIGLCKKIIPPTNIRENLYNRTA
# Sequence (P04958 458-1315 limits assumed, chain 2 of 2): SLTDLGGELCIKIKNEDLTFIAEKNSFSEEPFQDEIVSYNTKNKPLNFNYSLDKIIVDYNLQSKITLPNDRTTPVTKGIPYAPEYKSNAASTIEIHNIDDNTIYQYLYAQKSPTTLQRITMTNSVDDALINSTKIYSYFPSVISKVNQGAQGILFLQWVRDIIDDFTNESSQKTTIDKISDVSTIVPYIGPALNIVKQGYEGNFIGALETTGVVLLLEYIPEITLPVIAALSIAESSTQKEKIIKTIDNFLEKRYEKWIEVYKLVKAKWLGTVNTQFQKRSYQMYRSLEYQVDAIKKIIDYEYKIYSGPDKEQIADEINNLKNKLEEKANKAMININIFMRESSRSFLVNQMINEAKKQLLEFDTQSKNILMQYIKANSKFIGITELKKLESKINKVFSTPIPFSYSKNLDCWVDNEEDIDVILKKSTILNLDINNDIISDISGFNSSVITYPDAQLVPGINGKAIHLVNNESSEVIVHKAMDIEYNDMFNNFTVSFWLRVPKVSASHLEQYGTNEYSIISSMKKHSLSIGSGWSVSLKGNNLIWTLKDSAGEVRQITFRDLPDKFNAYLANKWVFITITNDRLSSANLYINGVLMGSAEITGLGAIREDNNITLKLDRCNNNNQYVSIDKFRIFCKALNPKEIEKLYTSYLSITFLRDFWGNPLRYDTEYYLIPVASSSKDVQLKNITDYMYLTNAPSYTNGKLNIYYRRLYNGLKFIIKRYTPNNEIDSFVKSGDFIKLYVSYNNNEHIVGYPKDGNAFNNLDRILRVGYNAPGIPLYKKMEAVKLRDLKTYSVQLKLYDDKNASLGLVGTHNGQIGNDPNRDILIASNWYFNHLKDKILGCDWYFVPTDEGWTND
# Experimental Protocol: competition ELISA on TeNT, binder biotinylated; competitor SVT15L-3FW4M; further: test concentration or dose not given here
Quick note: give the figure in %, leave out the unit.

Here is how some binders turned out for % inhibition of binding.
- Binder: "SVT06L (VHH) VHH: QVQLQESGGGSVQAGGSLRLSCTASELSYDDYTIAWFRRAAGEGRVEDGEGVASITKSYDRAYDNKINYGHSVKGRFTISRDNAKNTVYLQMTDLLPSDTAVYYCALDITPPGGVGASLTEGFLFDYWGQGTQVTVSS"
  Value Unit: "%"
  Recorded Number: 12
- Binder: "SVT03L (VHH) VHH: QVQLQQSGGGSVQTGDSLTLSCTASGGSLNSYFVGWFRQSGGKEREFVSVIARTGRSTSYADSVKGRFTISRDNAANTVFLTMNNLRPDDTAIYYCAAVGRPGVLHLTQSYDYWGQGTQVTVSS"
  Value Unit: "%"
  Recorded Number: 10
- Binder: "SVT15L-3FW4M (VHH) VHH: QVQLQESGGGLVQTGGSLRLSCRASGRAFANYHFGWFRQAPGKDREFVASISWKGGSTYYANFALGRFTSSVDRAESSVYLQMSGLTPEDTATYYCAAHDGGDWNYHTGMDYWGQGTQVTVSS"
  Value Unit: "%"
  Recorded Number: 95

Now look at this one.
-- ask # query: % inhibition of binding of entry SVT16L (VHH) VHH: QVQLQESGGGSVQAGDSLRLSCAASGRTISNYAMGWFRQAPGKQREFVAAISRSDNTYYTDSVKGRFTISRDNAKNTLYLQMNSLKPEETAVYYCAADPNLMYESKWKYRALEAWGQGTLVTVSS
-- reply 17
